Test system: 1A9/ptx-10
Experiment: Growth inhibition of beta tubulin Phe270Val mutant expressing human 1A9/Ptx10 cells after 72 hrs
Type: functional
Conditions: 1A9/ptx-10, 72 h
// NB: equality with 20000 nM counts as not fulfilled; only GI50 strictly below is fulfilled

Is it true that GI50 reported for C=C/C=C\[C@H](C)[C@H](O)[C@@H](C)[C@H]1CC[C@@H](C)C[C@H](C)[C@@H](O)[C@@H](C)/C=C\[C@@H](O)C[C@H](O)[C@H](C)/C=C/C=C\C(=O)O1 is less than 20000 nM? not fulfilled

Is it true that GI50 reported for C=C/C=C\[C@H](C)[C@@H]1OC(=O)/C=C\C=C\[C@@H](C)[C@@H](O)C[C@@H](O)/C=C\[C@H](C)[C@H](O)[C@@H](C)/C=C\CC[C@@H](O)[C@@H]1C is less than 20000 nM? fulfilled

Is it true that GI50 reported for CC(=O)O[C@H]1C(=O)[C@@]2(C)[C@H]([C@H](OC(=O)c3ccccc3)[C@]3(O)C[C@H](OC(=O)[C@H](O)[C@@H](NC(=O)c4ccccc4)c4ccccc4)C(C)=C1C3(C)C)[C@]1(OC(C)=O)CO[C@@H]1C[C@@H]2O [PACLITAXEL] is less than 20000 nM? fulfilled

Is it true that GI50 reported for C=C/C=C\[C@H](C)[C@H](OC(N)=O)[C@@H](C)[C@H](O)[C@@H](C)C/C(C)=C\[C@H](C)[C@@H](O)[C@@H](C)/C=C\[C@@H](O)C[C@@H]1OC(=O)[C@H](C)[C@@H](O)[C@H]1C [DISERMOLIDE] is less than 20000 nM? fulfilled

Is it true that GI50 reported for C=C/C=C\[C@H](C)[C@@H]1OC(=O)/C=C\C=C\[C@@H](C)[C@@H](O)C[C@H](O)/C=C\[C@H](C)[C@H](O)[C@@H](C)CCCC[C@@H](O)[C@@H]1C is less than 20000 nM? fulfilled

---

Species on record: Bos taurus
Assay: Induction of bovine brain tubulin polymerization at 10 uM relative to paclitaxel
Exercise: state measured % tubulin polymerization for each of the molecules provided.
Could you kindly put the unit after your number?

Could you tell me which % tubulin polymerization is on file for CC(=O)O[C@H]1C(=O)[C@@]2(C)[C@H]([C@H](OC(=O)c3ccccc3)[C@]3(O)C[C@H](OC(=O)[C@H](O)[C@@H](NC(=O)c4ccccc4)c4ccccc4)C(C)=C1C3(C)C)[C@]1(OC(C)=O)CO[C@@H]1C[C@@H]2O ? 100%

Could you tell me which % tubulin polymerization is on file for C=C/C=C\[C@H](C)[C@@H]1OC(=O)/C=C\C=C\[C@@H](C)[C@@H](O)C[C@@H](O)/C=C\[C@H](C)[C@H](O)[C@@H](C)/C=C\CC[C@@H](O)[C@@H]1C ? 1%

Could you tell me which % tubulin polymerization is on file for C=C/C=C\[C@H](C)[C@H](OC(N)=O)[C@@H](C)[C@H](O)[C@@H](C)C/C(C)=C\[C@H](C)[C@@H](O)[C@@H](C)/C=C\[C@@H](O)C[C@@H]1OC(=O)[C@H](C)[C@@H](O)[C@H]1C [DISERMOLIDE] ? 148%

Could you tell me which % tubulin polymerization is on file for C=C/C=C\[C@H](C)[C@@H]1OC(=O)/C=C/C=C/[C@@H](C)[C@@H](O)C[C@H](O)/C=C\[C@H](C)[C@H](O)[C@@H](C)/C=C\CC[C@@H](O)[C@@H]1C ? 10%

---

Species on record: Bos taurus
Experiment: Displacement of [3H]paclitaxel from bovine brain tubulin at 4 uM
MEASUREMENT KIND: Activity (%)
Respond numerically; units are % and should not be typed.

Could you tell me which Activity is on file for C=C/C=C\[C@H](C)[C@@H]1OC(=O)/C=C\C=C\[C@@H](C)[C@@H](O)C[C@H](O)/C=C\[C@H](C)[C@H](O)[C@@H](C)C[C@@H](C)CC[C@@H](O)[C@@H]1C [DICTYOSTATIN] ? 75

Could you tell me which Activity is on file for C=C/C=C\[C@H](C)[C@@H]1OC(=O)/C=C\C=C\[C@@H](C)[C@@H](O)C[C@H](O)/C=C\[C@H](C)[C@H](O)[C@@H](C)CCCC[C@@H](O)[C@@H]1C ? 48

Could you tell me which Activity is on file for C=C/C=C\[C@H](C)[C@H](O)[C@H](C)[C@@H]1CC/C=C\[C@H](C)[C@@H](O)[C@@H](C)/C=C\[C@H](O)C[C@H](O)[C@H](C)/C=C\C=C\C(=O)O1 ? 7

Could you tell me which Activity is on file for C=C/C=C\[C@H](C)[C@H](O)[C@@H](C)[C@H]1CC[C@@H](C)C[C@H](C)[C@@H](O)[C@@H](C)/C=C\[C@@H](O)C[C@H](O)[C@H](C)/C=C/C=C\C(=O)O1 ? 4

Could you tell me which Activity is on file for C=C/C=C\[C@H](C)[C@H](OC(N)=O)[C@@H](C)[C@H](O)[C@@H](C)C/C(C)=C\[C@H](C)[C@@H](O)[C@@H](C)/C=C\[C@@H](O)C[C@@H]1OC(=O)[C@H](C)[C@@H](O)[C@H]1C [DISERMOLIDE] ? 76

---

Exercise: state measured Activity for each of the molecules provided.
Species: Bos taurus
Test: Displacement of [3H]paclitaxel from bovine brain tubulin at 4 uM
Could you kindly put the unit after your number?

Could you tell me which Activity is on file for C=C/C=C\[C@H](C)[C@@H]1OC(=O)/C=C\C=C\[C@@H](C)[C@@H](O)C[C@H](O)/C=C\[C@H](C)[C@H](O)[C@@H](C)C[C@H](C)CC[C@@H](O)[C@@H]1C ? 11%

Could you tell me which Activity is on file for C=C/C=C\[C@H](C)[C@H](OC(N)=O)[C@@H](C)[C@H](O)[C@@H](C)C/C=C\[C@H](C)[C@@H](O)[C@@H](C)/C=C\[C@@H](O)C[C@@H]1OC(=O)[C@H](C)[C@@H](O)[C@H]1C ? 75%

Could you tell me which Activity is on file for C=C/C=C\[C@H](C)[C@@H]1OC(=O)/C=C/C=C/[C@@H](C)[C@@H](O)C[C@H](O)/C=C\[C@H](C)[C@H](O)[C@@H](C)/C=C\CC[C@@H](O)[C@@H]1C ? 5%

Could you tell me which Activity is on file for C=C/C=C\[C@H](C)[C@@H]1OC(=O)/C=C\C=C\[C@@H](C)[C@@H](O)C[C@@H](O)/C=C\[C@H](C)[C@H](O)[C@@H](C)/C=C\CC[C@@H](O)[C@@H]1C ? 11%

Could you tell me which Activity is on file for C=C/C=C\[C@H](C)[C@@H]1OC(=O)/C=C\C=C\[C@@H](C)[C@@H](O)C[C@H](O)/C=C\[C@H](C)[C@H](O)[C@@H](C)/C=C\CC[C@@H](O)[C@@H]1C ? 38%

Data provenance is ChEMBL document CHEMBL1145389.
